target-system: HLA-B*07:02
experiment-description: IEDB peptide-MHC binding, purified MHC/direct/fluorescence; filed as Kd, often an IC50 or EC50 that approximates it; bounds were set here for any values at or beyond the usual limits of such assays
condition-parameters: source organism: Influenza A virus (A/chicken/Hunan/fg/2004(H5N1))
pKd: −log10 of the molar value.
readout-name: pKd

>>> print(df.to_string())
   polymer_sequence  reported_measurement
0         DTVNRTHQY                ≤ 4.70

###

target-system: HLA-C*04:01
experiment-description: IEDB peptide-MHC binding, purified MHC/competitive/fluorescence; filed as Kd, often an IC50 or EC50 that approximates it; bounds were set here for any values at or beyond the usual limits of such assays
condition-parameters: source organism: Escherichia coli HS
readout-name: Kd

>>> df
   polymer_sequence  target_system  reported_measurement
0         MMWATAQAL    HLA-C*04:01                ≥ 5 µM
